- Test system: SW-620 colon
- assay: NCI tumour cell line growth inhibition, 48 h; in the data active = GI50 below about 0.43 µM; inactive = the rest
Tick one outcome: active, inactive

>  <compound>
CC(C)(C)c1[nH]nc2c1C(c1cc3ccccc3[nH]c1=O)Nc1cc(C(=O)OCc3ccccc3)ccc1N2 (centres undefined)

>  <class.assignment>
inactive

$$$$

q: Hey, what did the test say about "Nc1c(C(=O)c2cccc(C#CCO)c2)cnn1-c1ccc(F)cc1" ?
a: inactive

q: Hey, what did the test say about "COC(=O)c1cc2ccccc2c2c3c(ccc12)OCO3" ?
a: inactive

----------
Recorded measurements of TGI, one per entry
- Tested on: SF-268 CNS
- assay: NCI tumour cell line growth inhibition, 48 h

The following compounds have reported results that may help.
>  <compound>
CC1=C(C)SC(=C2Sc3nc(O)[nH]c(=O)c3S2)S1

>  <readout.type>
TGI

>  <value.measured>
> 100 µM

$$$$
>  <compound>
Cc1ccc(C(=O)NC2CCC2)cc1-c1ccc(C(=O)NCC2CC2)cc1

>  <readout.type>
TGI

>  <value.measured>
> 25 µM

$$$$
>  <compound>
COc1ccc(-c2c(C#N)c(S)n(NS(=O)(=O)c3ccccc3)c(=O)c2C#N)cc1

>  <readout.type>
TGI

>  <value.measured>
> 100 µM

$$$$
>  <compound>
CC(Oc1ccc(OCC2CCCCC2)cc1)C(=O)NCc1ccco1 (stereo not given)

>  <readout.type>
TGI

>  <value.measured>
> 100 µM

$$$$

Could you now consider this next compound?
q: Reported TGI for "Cc1nn(-c2ccc([N+](=O)[O-])cc2)c2ncnc(N/N=C/c3ccccc3O)c12" : what is it?
a: > 100 µM

----------
- Test system: T-47D breast
- assay: NCI tumour cell line growth inhibition, 48 h; in the data active means GI50 below about 0.43 µM; inactive means the rest
Tick one outcome: active, inactive

Below, 5 compounds whose answers are already recorded.
>  <compound>
COc1ccc(C2=CC(c3ccc(OC)cc3Br)N3C=CSC3=N2)cc1 (stereo unspecified)

>  <class.assignment>
inactive

$$$$
>  <compound>
CCOC(=O)c1cc2c(n1Cc1cc(OC)c(OC)c(OC)c1)-c1oncc1CCC2

>  <class.assignment>
active

$$$$
>  <compound>
N#CSCc1ccc(Cl)c(CSC#N)c1

>  <class.assignment>
inactive

$$$$
>  <compound>
Cc1nn(C)c(COc2ccc(N3CCN(S(=O)(=O)N(C)C)CC3)cc2)c1-c1cccc2c(CCCOc3cccc4ccccc34)c(C(=O)O)n(CCN3CCOCC3)c12

>  <class.assignment>
inactive

$$$$
>  <compound>
CC1=C(CCC(C)NCc2ccc(OCCCN3CCCCC3)cc2)C(C)(C)CCC1 (stereo unspecified)

>  <class.assignment>
inactive

$$$$

q: Hey, what did the test say about "Cc1[nH]c2ccc(F)cc2c1-c1nc2c3cccnc3c3ncccc3c2[nH]1" ?
a: active

----------
- System: XF 498 CNS
- assay: NCI tumour cell line growth inhibition, 48 h
Where a SMILES comes first, the peptide text is derived from it. [ ]: non-standard residue; d: D form.
Recorded measurements of TGI, one per entry

The following compounds have reported results that may help.
>  <compound>
CC(C)C[C@H](NC(=O)[C@H](CC(C)C)NC(=O)[C@@H](Cc1c[nH]c2ccccc12)NC(=O)[C@H](Cc1ccccc1)NC(=O)[C@@H](Cc1c[nH]c2ccccc12)NC(=O)[C@H](CCC(N)=O)NC(=O)[C@H](CCC(N)=O)NC(=O)[C@H]1CCCN1C(=O)[C@@H](N)CCCCN)C(N)=O (H-K[dP]QQ[dW]F[dW]LL-NH2)

>  <TGI>
> 100 µM

$$$$
>  <compound>
CCN(CC)c1oc(N(CC)CC)c(C(=O)Nc2ccccn2)c(=O)c1C(C)=O

>  <TGI>
> 100 µM

$$$$

q: What TGI appears in the records for this compound with XF 498 CNS? COc1cccc(NC(=O)CC(=O)N2N=C(N3c4ccccc4Sc4ccccc43)CC2c2ccccc2)c1 (stereo not drawn)
a: > 100 µM

Data provenance: PubChem BioAssay (NCI)
